Consider the following compounds; for each one, report its IC50.
# Target Entity: human TLR9 (Homo sapiens, UniProt Q9NR96)
# Sequence (Q9NR96 26-1032): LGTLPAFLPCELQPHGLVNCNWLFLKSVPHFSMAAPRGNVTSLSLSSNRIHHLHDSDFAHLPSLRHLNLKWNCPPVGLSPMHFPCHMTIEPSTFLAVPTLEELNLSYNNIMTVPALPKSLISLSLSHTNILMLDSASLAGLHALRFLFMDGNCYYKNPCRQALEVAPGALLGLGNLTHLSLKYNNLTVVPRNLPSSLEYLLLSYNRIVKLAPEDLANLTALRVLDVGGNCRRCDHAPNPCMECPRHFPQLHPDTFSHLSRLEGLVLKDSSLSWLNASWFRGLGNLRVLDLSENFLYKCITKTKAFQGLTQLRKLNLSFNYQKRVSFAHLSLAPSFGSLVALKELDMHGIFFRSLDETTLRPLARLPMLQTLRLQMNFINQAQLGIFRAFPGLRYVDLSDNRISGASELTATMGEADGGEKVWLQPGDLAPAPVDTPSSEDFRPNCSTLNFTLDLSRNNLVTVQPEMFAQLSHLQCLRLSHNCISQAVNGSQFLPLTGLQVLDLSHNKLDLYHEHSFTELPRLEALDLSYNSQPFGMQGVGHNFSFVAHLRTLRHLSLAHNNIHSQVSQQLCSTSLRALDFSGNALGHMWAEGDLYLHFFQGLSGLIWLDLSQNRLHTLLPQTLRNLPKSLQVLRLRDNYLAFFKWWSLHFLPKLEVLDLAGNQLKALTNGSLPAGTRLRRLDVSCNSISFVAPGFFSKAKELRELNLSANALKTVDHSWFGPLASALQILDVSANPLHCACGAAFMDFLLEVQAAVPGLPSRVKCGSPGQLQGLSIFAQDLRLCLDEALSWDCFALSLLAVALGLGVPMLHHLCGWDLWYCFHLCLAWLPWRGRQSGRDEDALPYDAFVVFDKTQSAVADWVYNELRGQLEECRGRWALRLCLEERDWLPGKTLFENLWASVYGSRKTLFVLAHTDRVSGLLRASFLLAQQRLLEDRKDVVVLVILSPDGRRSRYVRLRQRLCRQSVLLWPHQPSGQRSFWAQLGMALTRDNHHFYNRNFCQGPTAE
# Assay Remarks: TLR9 inhibition reporter assay (HEK-Blue cells, SEAP reporter, ODN2006 stimulation)
# Condition Set: HEK-Blue cells overexpressing human TLR9, SEAP reporter, ODN2006 5 nM
# Description: TLR7/8/9 Inhibition Reporter Assays HEK-Blue™-cells (Invivogen) overexpressing human TLR7, TLR8 or TLR9 receptors were used for screening inhibitors of these receptors using an inducible SEAP (secreted embryonic alkaline phosphatase) reporter gene under the control of the IFN-β minimal promoter fused to five NF-κB and AP-1-binding sites. […]
Report the value in µM with no unit label.

In: Given the compound "Cc1c(-c2[nH]c3ccc(CC4CNC4)cc3c2C(C)C)cn(C)c(=O)c1C" , what is its reported IC50?
Out: 2.11

In: Given the compound "Cc1c(-c2[nH]c3ccc(C4CN(CC#N)C4)cc3c2C(C)C)cn2ncnc2c1C" , what is its reported IC50?
Out: 32.3

In: Given the compound Cc1c(-c2[nH]c3ccc(C4CNCCO4)cc3c2C(C)C)cn2ncnc2c1C (stereo not shown) [Example 288] , what is its reported IC50?
Out: 3.16

In: Given the compound Cc1c(-c2[nH]c3ccc(C4CC5CN(C(C)C)CC5C4)cc3c2C(C)C)cn2cnnc2c1C (stereo not shown) , what is its reported IC50?
Out: 2.33

In: Given the compound Cc1cc(-c2[nH]c3ccc([C@@H]4C[C@H]4C(=O)N(C)C4CC5CCN4CC5)cc3c2C(C)C)ccn1 (stereo partly shown) [Example 463] , what is its reported IC50?
Out: 0.406

In: Given the compound COCCN1CC(c2ccc3[nH]c(-c4cc(C)c5ncnn5c4)c(C(C)C)c3c2)OCC1(C)C (stereo not shown) [Example 383] , what is its reported IC50?
Out: 13.7

In: Given the compound "Cc1c(-c2[nH]c3ccc(CC4CN(CCS(C)(=O)=O)C4)cc3c2C(C)C)cn2ncnc2c1C" , what is its reported IC50?
Out: 4.72

In: Given the compound COc1cc(-c2[nH]c3ccc(C4CCCN(C5COC5)C4)cc3c2C(C)C)cn2ncnc12 (stereo not shown) [Example 237] , what is its reported IC50?
Out: 21.2

In: Given the compound CC(C)c1c(-c2ccnc3[nH]ncc23)[nH]c2ccc(C3CCC(Oc4ccncc4)CC3)cc12 (stereo not shown) [Example 505] , what is its reported IC50?
Out: 13.9

In: Given the compound Cc1c(-c2[nH]c3ccc(C4CCC(N(C)C)CC4)cc3c2C(C)C)cn(C)c(=O)c1C (stereo not shown) [Example 476] , what is its reported IC50?
Out: 4.77

In: Given the compound Cc1c(-c2[nH]c3ccc(C4CCC(NCC(C)(C)O)CC4)cc3c2C(C)C)cn2ncnc2c1C (stereo not shown) [Example 112] , what is its reported IC50?
Out: 2.32

In: Given the compound COc1cc(-c2[nH]c3ccc(C4CCCN(CC(C)(C)O)C4)cc3c2C(C)C)cn2ncnc12 (stereo not shown) [Example 249] , what is its reported IC50?
Out: 2.33

In: Given the compound CNCC(=O)N1CCOC(c2ccc3[nH]c(-c4cc(C)c5ncnn5c4)c(C(C)C)c3c2)C1 (stereo not shown) [Example 338] , what is its reported IC50?
Out: 2.05

In: Given the compound Cc1cc(-c2[nH]c3ccc(C4CCC(NC5CC5)CC4)cc3c2C(C)C)cn2ncnc12 (single isomer, unassigned) [Example 15] , what is its reported IC50?
Out: 3.59

In: Given the compound Cc1c(-c2[nH]c3ccc(C4CC(NCCS(C)(=O)=O)C4)cc3c2C(C)C)cn(C)c(=O)c1C (stereo not shown) [Example 495] , what is its reported IC50?
Out: 20.7

# credit: patent US11878975B2
